The entries below come with measured Cell binding (FOB) values attached.
Target: T1, human TREM2 expressed on cells (human, UniProt Q9NZC2 19-230)
T1 construct: also called huT2 BW; cell expressed TREM2
T1 sequence: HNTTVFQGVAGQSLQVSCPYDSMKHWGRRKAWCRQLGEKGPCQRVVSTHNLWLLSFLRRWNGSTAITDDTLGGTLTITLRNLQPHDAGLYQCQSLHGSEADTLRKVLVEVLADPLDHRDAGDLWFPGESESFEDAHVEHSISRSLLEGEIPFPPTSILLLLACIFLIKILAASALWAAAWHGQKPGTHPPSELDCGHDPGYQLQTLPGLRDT
Experiment: FACS, BW cells
Write the value in fold over background as a bare number.

Binder	Cell binding (FOB) / fold over background
AL2p-h26 (antibody, IgG1, V domains shown, IgG1; Fab in monovalent BLI) VH: QVQLVQSGAEVKKPGASVKVSCKASGYAFSSSWMNWVRQAPGQRLEWIGRIYPGDGDTNYAQKFQGRVTITADTSASTAYMELSSLRSEDTAVYYCARLLRNQPGESYAMDYWGQGTLVTVSS VL: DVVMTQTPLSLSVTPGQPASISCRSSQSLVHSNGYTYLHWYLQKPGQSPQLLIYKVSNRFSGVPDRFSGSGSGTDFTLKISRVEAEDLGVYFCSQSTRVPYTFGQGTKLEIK	78

In one line, give reported Cell binding (FOB) of the entry AL2p-h30 (antibody, IgG1, V domains shown, IgG1; Fab in monovalent BLI) VH: QVQLVQSGAEVKKPGASVKVSCKASGYAFSSSWMNWVRQAPGQGLEWMGRIYPGDGDTNYAQKFQGRVTMTADTSTSTAYMELSSLRSEDTAVYYCARLLRNQPGESYAMDYWGQGTLVTVSS VL: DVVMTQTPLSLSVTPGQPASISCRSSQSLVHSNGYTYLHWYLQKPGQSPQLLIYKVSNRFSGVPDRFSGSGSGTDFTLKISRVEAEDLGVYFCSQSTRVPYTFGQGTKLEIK .
88

In one line, give reported Cell binding (FOB) of the entry AL2p-h25 (antibody, IgG1, V domains shown, IgG1; Fab in monovalent BLI) VH: QVQLVQSGAEVKKPGASLKISCKASGYAFSSSWMNWVRQAPGQGLEWIGRIYPGDGDTNYNGEFRVRATLTADTSTSTAYMELSSLRSEDTAVYYCARLLRNQPGESYAMDYWGQGALVTVSS VL: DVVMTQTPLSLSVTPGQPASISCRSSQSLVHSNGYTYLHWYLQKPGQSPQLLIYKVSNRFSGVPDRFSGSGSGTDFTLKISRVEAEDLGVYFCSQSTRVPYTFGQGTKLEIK .
90

In one line, give reported Cell binding (FOB) of the entry AL2p-h34 (antibody, IgG1, V domains shown, IgG1; Fab in monovalent BLI) VH: QVQLVQSGAEVKKPGSSVKVSCKASGYAFSSSWMNWVRQAPGQGLEWIGRIYPGDGDTNYAQKFQGRATITADTSTSTAYMELSSLRSEDTAVYFCARLLRNQPGESYAMDYWGQGTLVTVSS VL: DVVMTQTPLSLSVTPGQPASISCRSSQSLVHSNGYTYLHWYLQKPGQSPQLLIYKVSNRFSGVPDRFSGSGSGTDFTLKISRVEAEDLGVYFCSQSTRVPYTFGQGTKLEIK .
84

In one line, give reported Cell binding (FOB) of the entry AL2p-h43 (antibody, IgG1, V domains shown, IgG1; Fab in monovalent BLI) VH: QVQLVQSGAEVKKPGASLKVSCKASGYAFSSSWMNWVRQAPGQRLEWIGRIYPGDGDTNYNGEFRVRATLTADTSASTAYMELSSLRSEDTAVYFCARLLRNQPGESYAMDYWGQGTLVTVSS VL: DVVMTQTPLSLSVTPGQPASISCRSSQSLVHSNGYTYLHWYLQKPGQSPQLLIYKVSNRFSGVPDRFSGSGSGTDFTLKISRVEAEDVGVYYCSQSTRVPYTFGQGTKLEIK .
91

In one line, give reported Cell binding (FOB) of the entry AL2p-h27 (antibody, IgG1, V domains shown, IgG1; Fab in monovalent BLI) VH: QVQLVQSGAEVKKPGASVKVSCKASGYAFSSSWMNWVRQAPGQGLEWIGRIYPGDGDTNYNGEFRVRATLTADTSTSTAYMELSSLRSEDTAVYFCARLLRNQPGESYAMDYWGQGTLVTVSS VL: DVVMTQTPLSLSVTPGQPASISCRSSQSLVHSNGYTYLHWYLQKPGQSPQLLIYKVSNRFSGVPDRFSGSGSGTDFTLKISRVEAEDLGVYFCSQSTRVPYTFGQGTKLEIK .
78

In one line, give reported Cell binding (FOB) of the entry AL2p (parental mouse anti-TREM2 antibody) (antibody, human IgG1, V domains shown, Mouse variable regions; tested as Fab, as human-mouse chimera (human IgG1 Fc) and as msIgG1; see assay; also called 9F5; 9F5a) VH: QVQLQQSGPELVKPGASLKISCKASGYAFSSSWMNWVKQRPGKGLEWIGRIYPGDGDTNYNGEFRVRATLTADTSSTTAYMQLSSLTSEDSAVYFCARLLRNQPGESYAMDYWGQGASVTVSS VL: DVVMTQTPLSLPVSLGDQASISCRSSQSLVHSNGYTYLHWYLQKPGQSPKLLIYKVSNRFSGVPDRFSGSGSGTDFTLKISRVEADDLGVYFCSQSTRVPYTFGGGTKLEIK .
79

In one line, give reported Cell binding (FOB) of the entry AL2p-h47 (antibody, IgG1, V domains shown, IgG1; Fab in monovalent BLI) VH: QVQLVQSGAEVKKPGASVKVSCKASGYAFSSSWMNWVRQAPGQGLEWMGRIYPGDGDTNYNGEFRVRVTMTRDTSTSTVYMELSSLRSEDTAVYYCARLLRNQPGESYAMDYWGQGTLVTVSS VL: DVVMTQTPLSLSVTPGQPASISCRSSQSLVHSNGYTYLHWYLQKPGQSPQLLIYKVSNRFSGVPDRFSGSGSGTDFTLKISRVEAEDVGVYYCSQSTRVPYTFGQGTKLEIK .
93

In one line, give reported Cell binding (FOB) of the entry AL2p-h77 (antibody, IgG1, V domains shown, IgG1; Fab in monovalent BLI) VH: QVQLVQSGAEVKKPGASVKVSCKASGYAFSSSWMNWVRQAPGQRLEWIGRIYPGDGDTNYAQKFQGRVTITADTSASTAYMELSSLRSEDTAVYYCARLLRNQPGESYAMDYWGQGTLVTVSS VL: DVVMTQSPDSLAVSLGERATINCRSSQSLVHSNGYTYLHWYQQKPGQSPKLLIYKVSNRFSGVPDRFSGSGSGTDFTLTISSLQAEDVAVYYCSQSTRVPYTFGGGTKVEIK .
83

In one line, give reported Cell binding (FOB) of the entry AL2p-h19 (antibody, IgG1, V domains shown, IgG1; Fab in monovalent BLI) VH: QVQLVQSGAEVKKPGSSVKVSCKASGYAFSSSWMNWVRQAPGQGLEWMGRIYPGDGDTNYAQKFQGRATITADTSTSTAYMELSSLRSEDTAVYYCARLLRNQPGESYAMDYWGQGTLVTVSS VL: DIVMTQTPLSLSVTPGQPASISCRSSQSLVHSNGYTYLHWYLQKPGQSPQLLIYKVSNRFSGVPDRFSGSGSGTDFTLKISRVEAEDVGVYYCSQSTRVPYTFGQGTKLEIK .
87

These measurements were taken from patent US20190040130A1.
